Where do these numbers come from? They come from PubChem BioAssay (NCI).

System: CCRF-CEM leukemia
Test details: NCI tumour cell line growth inhibition, 48 h
Label met when TGI is at or above 8 µM; otherwise label not met.

{"Compound": "O=C(N/N=C/c1ccc(Br)cc1)N/N=C/c1ccc(Br)cc1", "Group label": "met"}

Could you tell me if the measured TGI of O=C(O)c1ccc(C2C(=O)N[C@@H]3CCC[C@H]23)cc1 (stereo not given in full) reaches 8 µM or more? met

Would you say Cc1cnc2c(c1)C(=O)C1=C(C2=O)C2OC(=O)CC2OC1(C)C (stereo not given) shows TGI at minimum 8 µM? not met

# bool: TGI of CCCCn1c(-c2ccc(C(=O)O/N=C(\N)c3ccc4c(c3)OCO4)cc2)nc(-c2ccccc2)c1-c1ccccc1 >= 8 µM not met

Could you verify whether the entry COc1ccc(COCC[C@H](C)OC2OC(CO[Si](C)(C)C(C)(C)C)C(OC(=O)CCCN=[N+]=[N-])C(OC(=O)CCCN=[N+]=[N-])C2OC(=O)CCCN=[N+]=[N-])cc1 (stereo not given in full) shows TGI of no less than 8 µM? met

Is reported TGI greater than or equal to 8 µM here: CCOC(=O)C#Cc1ccccc1 met

Could you verify whether the entry O=C(Nc1ccc(Cl)c(Cl)c1)NS(=O)(=O)c1cnccc1Oc1ccc(F)cc1 shows TGI of no less than 8 µM? not met

Please check the record COC(=O)C1(C)Cc2cc(OC(C)=O)c(OC(C)=O)cc2N1 (stereo not given) and state if its TGI is at or above 8 µM. met

Does TGI meet or surpass 8 µM for C=C(C)C1C/C=C(/C)CCCC2(CCC3=C(CC(C(=C)C)C/C=C(/C)CCC3)O2)C(=O)C1 (stereo not given) ? met

I'd appreciate it if you could say whether O=C(N/N=C/c1cccc(F)c1)c1ccncc1 has TGI at least equal to 8 µM. met

----------
So I've got a bunch of compounds here, and I need their GI50 values.
Tested on: UO-31 renal
Test details: NCI tumour cell line growth inhibition, 48 h

Please state, for each entry, its recorded GI50.
1. Cc1ccc(NC(=O)c2cc(S(=O)(=O)N3C(=O)NC(=O)NS3(=O)=O)c(S)cc2Cl)cc1
2. N#Cc1ccc(NC(=O)C(CC(=O)OCc2ccccc2)NC(=O)OCc2ccccc2)cc1 (stereo not given)
3. Cc1ccc(-c2nc3nc(-c4ccc(F)cc4)nc(N4CCCNCC4)c3o2)cc1
4. COc1ccc(CN2C3CC2CN(c2ccc(-c4cc(OCC(C)(C)O)cn5ncc(C#N)c45)cn2)C3)cn1

1. 27800 nM
2. > 100000 nM
3. 1440 nM
4. 7320 nM

Report GI50 for each item below.
1. O=C(N/N=C/c1ccccc1O)c1ccccc1
2. CCCCCCCCCCCCCCCC[N+]1(C)CCOCC1
3. CCNC(=O)c1noc(-c2cc(C(C)C)c(O)cc2O)c1-c1ccc(CN2CCOCC2)cc1
4. O=c1c(F)cn(Cc2ccccc2CCl)c(=O)n1Cc1ccccc1CCl
5. CNC(=O)c1nn(C)c2c1C(C)(C)Cc1cnc(Nc3ccc(N4CCN(C)CC4)cc3)nc1-2

1530 nM
13400 nM
45.7 nM
1990 nM
169 nM

Using the record for CN(C)c1ccc(-c2ccc(-c3ccc(C(=N)N)cc3)s2)cc1 , state its measured GI50. 1640 nM
